- EXPERIMENTAL_TARGET: ACE2 (Homo sapiens)
- Sequence (Q9BYF1 18-805, species assumed): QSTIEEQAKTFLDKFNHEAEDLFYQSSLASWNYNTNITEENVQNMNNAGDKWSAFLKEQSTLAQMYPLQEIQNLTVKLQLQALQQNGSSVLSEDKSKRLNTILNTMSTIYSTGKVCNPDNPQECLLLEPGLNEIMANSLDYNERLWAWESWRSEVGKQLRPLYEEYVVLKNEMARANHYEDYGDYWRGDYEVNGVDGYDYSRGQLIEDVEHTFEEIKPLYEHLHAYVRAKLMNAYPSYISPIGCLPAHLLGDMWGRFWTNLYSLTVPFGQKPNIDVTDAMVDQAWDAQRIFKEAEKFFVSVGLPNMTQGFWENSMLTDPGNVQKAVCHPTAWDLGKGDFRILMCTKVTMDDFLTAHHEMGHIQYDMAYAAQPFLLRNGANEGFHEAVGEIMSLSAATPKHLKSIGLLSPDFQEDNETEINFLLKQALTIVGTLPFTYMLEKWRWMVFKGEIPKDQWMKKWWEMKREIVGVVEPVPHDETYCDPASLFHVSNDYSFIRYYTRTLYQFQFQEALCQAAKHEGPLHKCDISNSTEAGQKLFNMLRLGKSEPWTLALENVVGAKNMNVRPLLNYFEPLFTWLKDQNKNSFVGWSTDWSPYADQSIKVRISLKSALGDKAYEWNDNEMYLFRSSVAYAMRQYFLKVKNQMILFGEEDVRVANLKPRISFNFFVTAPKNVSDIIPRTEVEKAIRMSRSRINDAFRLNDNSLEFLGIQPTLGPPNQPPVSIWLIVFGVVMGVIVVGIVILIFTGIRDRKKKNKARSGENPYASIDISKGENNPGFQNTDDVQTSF
- TEST_METHOD_NOTES: ACE2 quenched fluorescence substrate (QFS) inhibition assay
- Assay type: biochemical
- MEASUREMENT_CONDITIONS: peptide 10 μM; QFS assay, pH 6.5, 37 °C, 1 h; value ± spread
MEASUREMENT_NAME: Inhibition (%) of ACE2, AngII chimeras, 10 μM

DRVYIYβPF 10 ± 5.8%
DRVYVYβPF 42 ± 4.4%

Now for the substance whose Inhibition (%) of ACE2, AngII chimeras, 10 μM we want.
# lookup: Inhibition (%) of ACE2, AngII chimeras, 10 μM of DRVYVYPβF
15 ± 9%
